method.notes: chemical genetic growth profiling, strain panel (AID 1159580);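 also: tested at 20 µM; growth read once vehicle control cultures reached saturation at 30 °C; 1 = growth at the plate median or of vehicle wells; lower values mean less growth of the strain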
experimental.setup: S. cerevisiae deletion strains, growth OD, locus YKL009W, strain mrt4, stronger effect = lower value
About 2,000 (36%) of roughly 5,500 compounds were called active. About 18% were inconclusive and are not listed. The list shows a part of the results.
measurement.kind: normalized growth

Worked cases, normalized growth given:
Cc1onc(-c2c(Cl)cccc2Cl)c1C(=O)N[C@@H]1C(=O)N2[C@@H]1SC(C)(C)[C@@H]2C(=O)O: 0.986 (inactive)
CN1CCN(CC(=O)N2c3ccccc3C(=O)Nc3cccnc32)CC1: 0.998 (inactive)
NC[C@H]1O[C@H](O[C@H]2[C@H](O)[C@@H](O[C@H]3O[C@H](CO)[C@@H](O)[C@H](N)[C@H]3O)[C@H](N)C[C@@H]2N)[C@H](N)C[C@@H]1O: 1.02 (inactive)
C[C@]12CCC(=O)C=C1CCC1C2[C@@H](O)C[C@@]2(C)C1CC[C@]2(O)C(=O)COC(=O)CCC(=O)O (some centres not stated): 1.02 (inactive)

Each of the following entries comes with a recorded value; kindly state normalized growth for each.
1. O=C1c2ccccc2C(=O)C1c1ccccc1
2. C#CC1(O)CCC2C3CCC4=CC(=O)CCC4(C)C3CCC21C (configuration not stated)
3. COc1cccc(OC)c1C(=O)N[C@@H]1C(=O)N2[C@@H]1SC(C)(C)[C@@H]2C(=O)O
4. C=C(C)[C@@H]1CC[C@]2(CO)CC[C@]3(C)[C@H](CCC4[C@@]5(C)CC[C@H](O)C(C)(C)C5CC[C@]43C)C12 (some centres not stated)
5. NC(=O)N1c2ccccc2C=Cc2ccccc21

["0.974 (inactive)", "0.945 (inactive)", "0.946 (inactive)", "0.963 (inactive)", "0.918 (inactive)"]

Respectfully, I request normalized growth for each entry included below.
1. C1CCC(C(CC2CCCCN2)C2CCCCC2)CC1 (configuration not stated)
2. CN[C@@H]1[C@@H](O[C@H]2O[C@H](CO)[C@@H](N)[C@H](O)[C@H]2O)O[C@H]2C[C@@H](N)[C@H](O[C@H]3[C@H](O)[C@@H](O)[C@H](N)C[C@@H]3N)O[C@@H]2[C@@H]1O
3. NC1CC1c1ccccc1 (configuration not stated)

1. 1 (inactive)
2. 0.996 (inactive)
3. 1.01 (inactive)

----------
Assignment: determine reported normalized growth for the given molecules.
method.notes: chemical genetic growth profiling, strain panel (AID 1159580);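 also: tested at 20 µM; growth read once vehicle control cultures reached saturation at 30 °C; 1 = growth at the plate median or of vehicle wells; lower values mean less growth of the strain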
experimental.setup: S. cerevisiae deletion strains, growth OD, locus YJL134W, strain LCB3, stronger effect = lower value
About 2,000 (36%) of roughly 5,500 compounds were called active. Inconclusive results (about 18%) are left out. This is one part of the list.
Numbers only.

The following molecules have reported results that may help.
CC(=O)c1cc2c(cc1O)OC(C)(C)C=C2: 0.98
CC1=CC(=O)C2=C(C)CC(O)C3C(C)C(=O)OC3C12 (stereo not given): 0.996
CC(=O)O[C@H]1CC[C@]2(C)C3CC[C@@]4(C)C(CC5O[C@@]6(CCC(C)CO6)[C@@H](C)C54)C3CC[C@H]2C1 (stereo not given in full): 0.987
C1CCC(C(CC2CCCCN2)C2CCCCC2)CC1 (stereo not given): 0.996

Now for another entry.
Give its normalized growth value. Item: CC(=O)O[C@@H]1CC[C@]2(C)C3CC[C@]4(C)C(=O)CCC4C3CC[C@H]2C1 (stereo not given in full)
0.951
